Assay: Acute toxicity in mice (Experimental Example 11)
Details: mouse, in vivo, ip; administered intraperitoneally, male ddn mice
Description: Acute toxicity value when Y-6430 was administered intraperitoneally to male ddn mice was 1,500 mgjkg or more. 'Acute toxicity values when AH-44 carcinoma cells were implanted peritoneally and orally to Donryu rats were both 1,000 mg/kg or more.
METRIC_NAME: LD50

Consider the compound shown here: CCOC(=O)[C@@H](N)CSC(=O)NC.Cl [Y-6430] What is its recorded LD50?
≥ 1500 mg/kg

---

Assay: Acute toxicity in AH-44 carcinoma bearing rats (Experimental Example 11)
Settings: rat, in vivo, ip; peritoneally, Donryu rats with AH-44 carcinoma cells
Procedure: Acute toxicity value when Y-6430 was administered intraperitoneally to male ddn mice was 1,500 mgjkg or more. 'Acute toxicity values when AH-44 carcinoma cells were implanted peritoneally and orally to Donryu rats were both 1,000 mg/kg or more.
METRIC_NAME: LD50

Which LD50 value belongs to CCOC(=O)[C@@H](N)CSC(=O)NC.Cl ?
≥ 1000 mg/kg
